# protocolDescription: Spectroscopic measurements (absorption, emission, quantum yield, extinction coefficient)
# Assay type: physicochemical
# studyConditions: BDNCA library
parameter: Qunt. Yield
Kindly provide the number alone.

Which measured Qunt. Yield value corresponds to `CC1=CC(/C=C/c2ccc(-c3ccccn3)cc2)=[N+]2C1=C(c1ccc(NC(=O)CCl)cc1)c1cccn1[B-]2(F)F` ?
0.11

For the compound `CC1=CC(/C=C/c2c[nH]c3ccc(Br)cc23)=[N+]2C1=C(c1ccc(NC(=O)CCl)cc1)c1cccn1[B-]2(F)F` , what Qunt. Yield is on record?
0.06

Which Qunt. Yield is listed for `CC1=CC(/C=C/C=C(c2ccccc2)c2ccccc2)=[N+]2C1=C(c1ccc(NC(=O)CCl)cc1)c1cccn1[B-]2(F)F` ?
0.08

Requested field: Qunt. Yield. Item: `CC1=CC(/C=C/c2c(C)c(C)c(C)c(C)c2C)=[N+]2C1=C(c1ccc(NC(=O)CCl)cc1)c1cccn1[B-]2(F)F`
0.12
